- System: TZM-bl cell line
- Type: cell-based
- particulars: human, 1 μM
Provide the reported Percent Viability @ 1 μM (TZM-bl cells) of each item.
Give the number; % is assumed, so skip it.

The recorded Percent Viability @ 1 μM (TZM-bl cells) for Oc1c(CC2CCOCC2)c(C2CC2)nn1-c1nc2ccccc2[nH]1 is 101.5

The recorded Percent Viability @ 1 μM (TZM-bl cells) for COC(=O)N1CCC(CCc2c(-c3ccc(C(F)(F)F)cn3)nn(-c3nc4ccccc4[nH]3)c2O)CC1 is 99.1

The recorded Percent Viability @ 1 μM (TZM-bl cells) for Oc1c(CC2CCOCC2)c(C2CC2)nn1-c1nc2cccnc2[nH]1 is 100.6

The recorded Percent Viability @ 1 μM (TZM-bl cells) for Oc1c(CCc2ccc(F)cc2)c(CC2CCNCC2)nn1-c1nc2ccccc2[nH]1 is 62.3

The recorded Percent Viability @ 1 μM (TZM-bl cells) for CS(=O)(=O)c1ccc(-c2nn(-c3nc4cc(Cl)ccc4[nH]3)c(O)c2CCC2CCNCC2)cc1 is 98.8

The recorded Percent Viability @ 1 μM (TZM-bl cells) for Oc1c(CCc2ccc(F)cc2)c(CC2CCN(Cc3ccncc3)CC2)nn1-c1nc2ccccc2[nH]1 is 97.9

The recorded Percent Viability @ 1 μM (TZM-bl cells) for Oc1c(CCc2ccc(F)cc2)c(C2CCN(CC3CCOCC3)CC2)nn1-c1nc2ccccc2[nH]1 is 99.1

The recorded Percent Viability @ 1 μM (TZM-bl cells) for CC(C)OC(=O)N1CCC(c2nn(-c3nc4ccccc4[nH]3)c(O)c2CCC2CCOCC2)CC1 is 86.8

The recorded Percent Viability @ 1 μM (TZM-bl cells) for Oc1c(CCc2ccc(F)cc2)c(CN2CCOCC2)nn1-c1nc2ccccc2[nH]1 is 100.7

The recorded Percent Viability @ 1 μM (TZM-bl cells) for O=C(c1cnccn1)N1CCC(c2nn(-c3nc4ccccc4[nH]3)c(O)c2CCc2ccc(F)cc2)CC1 is 99.1

The recorded Percent Viability @ 1 μM (TZM-bl cells) for Oc1c(CCc2ccc(F)cc2)c(-c2ccc(C(F)(F)F)cc2)nn1-c1nc2ccc(Cl)cc2[nH]1 is 89.9

The recorded Percent Viability @ 1 μM (TZM-bl cells) for Oc1c(CCc2ccc(F)cc2)c(CC2CCN(Cc3ccccn3)CC2)nn1-c1nc2ccccc2[nH]1 is 99.0

The recorded Percent Viability @ 1 μM (TZM-bl cells) for Cc1ccc(-c2nn(-c3nc4ccccc4[nH]3)c(O)c2CCc2ccc(F)cc2)cn1 is 98.3

The recorded Percent Viability @ 1 μM (TZM-bl cells) for O=C(C1CCOC1)N1CCC(Cc2nn(-c3nc4ccccc4[nH]3)c(O)c2CCc2ccc(F)cc2)CC1 (stereo not shown) is 99.3

The recorded Percent Viability @ 1 μM (TZM-bl cells) for Oc1c(CCc2ccc(F)cc2)c(C2CCOCC2)nn1-c1nc2cccnc2[nH]1 is 100.1

The recorded Percent Viability @ 1 μM (TZM-bl cells) for Oc1c(CCc2ccc(F)cc2)c(C2CCN(Cc3ccccn3)CC2)nn1-c1nc2ccccc2[nH]1 is 99.3

----------
- System: TZM-bl cell line
- Type: cell-based
- particulars: human, 1 μM
Provide the reported Percent Viability @ 1 μM (TZM-bl cells) of each item.
// return the numeric value with its unit appended

The recorded Percent Viability @ 1 μM (TZM-bl cells) for Nc1c(CCc2ccc(F)cc2)c(-c2ccc(Cl)cc2)nn1-c1nc2ccccc2[nH]1 is 99.7%

The recorded Percent Viability @ 1 μM (TZM-bl cells) for O=C(C1CC1)N1CCC(CCc2c(C3CC3)nn(-c3nc4cc(Cl)ccc4[nH]3)c2O)CC1 is 97.2%

The recorded Percent Viability @ 1 μM (TZM-bl cells) for OCCc1c(-c2ccc(C(F)(F)F)cc2)nn(-c2nc3ccccc3[nH]2)c1O is 99.9%

The recorded Percent Viability @ 1 μM (TZM-bl cells) for Oc1c(CCC2CCN(CC(F)(F)F)CC2)c(-c2ccc(C(F)(F)F)cc2)nn1-c1nc2ccccc2[nH]1 is 85.2%

The recorded Percent Viability @ 1 μM (TZM-bl cells) for CS(=O)(=O)c1ccc(-c2nn(-c3cc(C(F)(F)F)n[nH]3)c(O)c2CCC2CCOCC2)cc1 is 99.6%

The recorded Percent Viability @ 1 μM (TZM-bl cells) for Cc1ccn(CCc2c(-c3ccc(C(F)(F)F)cc3)nn(-c3nc4ccccc4[nH]3)c2O)n1 is 97.9%

The recorded Percent Viability @ 1 μM (TZM-bl cells) for CC(C)(O)C(=O)N1CCC(c2nn(-c3nc4ccccc4[nH]3)c(O)c2CCc2ccc(F)cc2)CC1 is 100.0%

The recorded Percent Viability @ 1 μM (TZM-bl cells) for O=C(O)c1ccc(-c2nn(-c3nc4ccccc4[nH]3)c(O)c2CCc2ccc(F)cc2)cc1 is 99.3%

The recorded Percent Viability @ 1 μM (TZM-bl cells) for CS(=O)(=O)c1ccc(-c2nn(-c3nc4cc(Cl)ccc4[nH]3)c(O)c2CCC2CCOCC2)cc1 is 97.9%

The recorded Percent Viability @ 1 μM (TZM-bl cells) for CC(C)(O)C(=O)N1CCCC1c1nn(-c2nc3ccccc3[nH]2)c(O)c1CCc1ccc(F)cc1 (centres unmarked) is 101.5%

The recorded Percent Viability @ 1 μM (TZM-bl cells) for Oc1c(CCc2ccc(F)cc2)c(CNCc2ccncc2)nn1-c1nc2ccccc2[nH]1 is 101.3%

The recorded Percent Viability @ 1 μM (TZM-bl cells) for CS(=O)(=O)c1ccc(-c2nn(-c3nc4ccccc4[nH]3)c(O)c2CCC2CCN(CC(F)(F)F)CC2)cc1 is 69.3%

The recorded Percent Viability @ 1 μM (TZM-bl cells) for Oc1c(CCn2nccn2)c(-c2ccc(C(F)(F)F)cc2)nn1-c1nc2ccccc2[nH]1 is 99.5%

The recorded Percent Viability @ 1 μM (TZM-bl cells) for Oc1c(CCc2ccc(Br)cc2)c(-c2ccc(C(F)(F)F)cn2)nn1-c1nc2ccccc2[nH]1 is 97.6%

The recorded Percent Viability @ 1 μM (TZM-bl cells) for Oc1c(CCc2ccc(F)cc2)c(-c2cccnc2)nn1-c1nc2ccccc2[nH]1 is 97.8%

The recorded Percent Viability @ 1 μM (TZM-bl cells) for Oc1c(CCc2ccc(F)cc2)c(-c2ccc(C(F)(F)F)cc2)nn1-c1cc(C(F)(F)F)n[nH]1 is 101.3%

The recorded Percent Viability @ 1 μM (TZM-bl cells) for Oc1c(CC2CCNCC2)c(-c2ccc(C(F)(F)F)cc2)nn1-c1nc2ccccc2[nH]1 is 101.3%

The recorded Percent Viability @ 1 μM (TZM-bl cells) for Oc1c(CCc2ccc(F)cc2)c(-c2cncc(Br)c2)nn1-c1nc2ccccc2[nH]1 is 81.6%

The recorded Percent Viability @ 1 μM (TZM-bl cells) for O=C(OCc1ccccc1)N1CCC(Cc2nn(-c3nc4ccccc4[nH]3)c(O)c2CCc2ccc(F)cc2)CC1 is 100.6%

The recorded Percent Viability @ 1 μM (TZM-bl cells) for Oc1c(CC2CCN(CC(F)(F)F)CC2)c(-c2ccc(C(F)(F)F)cc2)nn1-c1nc2ccccc2[nH]1 is 93.5%

The recorded Percent Viability @ 1 μM (TZM-bl cells) for Oc1c(CC2CCOCC2)c(C2CCOCC2)nn1-c1nc2cccnc2[nH]1 is 100.1%

The recorded Percent Viability @ 1 μM (TZM-bl cells) for O=C(OCc1ccccc1)N1CCC(c2nn(-c3nc4ccccc4[nH]3)c(O)c2CCc2ccc(F)cc2)CC1 is 92.0%

The recorded Percent Viability @ 1 μM (TZM-bl cells) for Nc1c(CCC2CCOCC2)c(-c2ccc(F)cc2)nn1-c1cc(C(F)(F)F)n[nH]1 is 102.2%

The recorded Percent Viability @ 1 μM (TZM-bl cells) for CC(=O)N1CCC(CCc2c(-c3ccc(C(F)(F)F)cn3)nn(-c3nc4cc(Br)ccc4[nH]3)c2O)CC1 is 74.0%

The recorded Percent Viability @ 1 μM (TZM-bl cells) for O=S(=O)(c1c(Cl)nc2sccn12)N1CCC(c2nn(-c3nc4ccccc4[nH]3)c(O)c2CCc2ccc(F)cc2)CC1 is 97.7%

The recorded Percent Viability @ 1 μM (TZM-bl cells) for O=S(=O)(C1CCCC1)N1CCC(c2nn(-c3nc4ccccc4[nH]3)c(O)c2CCc2ccc(F)cc2)CC1 is 95.8%

The recorded Percent Viability @ 1 μM (TZM-bl cells) for CC(C)(C)OC(=O)NCc1nn(-c2nc3ccccc3[nH]2)c(O)c1CCc1ccc(F)cc1 is 92.9%

The recorded Percent Viability @ 1 μM (TZM-bl cells) for Oc1c(CCc2ccc(F)cc2)c(-c2ccc(C(F)(F)F)cn2)nn1-c1nc2cc(F)ccc2[nH]1 is 81.2%

The recorded Percent Viability @ 1 μM (TZM-bl cells) for O=C(OCc1ccccc1)N1CCC(c2nn(-c3nc4ccncc4[nH]3)c(O)c2CCc2ccc(F)cc2)CC1 is 105.6%
